Sourced from BigSolDB 2.1

Details: in water, 313.15 K
READOUT_NAME: solubility (mole fraction)

GIVEN_SMILES | RECORDED_MEASUREMENT
COc1ccc(Cl)cc1C(=O)NCCc1ccc(S(=O)(=O)NC(=O)NC2CCCCC2)cc1 | 3.04e-07

----------
Settings: in isopropanol, 298.15 K

GIVEN_SMILES | solubility (mole fraction)
COc1ccc(Cl)cc1C(=O)NCCc1ccc(S(=O)(=O)NC(=O)NC2CCCCC2)cc1 | 0.000168

----------
Conditions: in water, 318.15 K
READOUT_NAME: solubility (mole fraction)

GIVEN_SMILES | READOUT_NAME | RECORDED_MEASUREMENT
COc1ccc(Cl)cc1C(=O)NCCc1ccc(S(=O)(=O)NC(=O)NC2CCCCC2)cc1 | solubility (mole fraction) | 4.35e-07

----------
Conditions: in acetonitrile, 308.15 K

GIVEN_SMILES | solubility (mole fraction)
COc1ccc(Cl)cc1C(=O)NCCc1ccc(S(=O)(=O)NC(=O)NC2CCCCC2)cc1 | 0.000231

----------
Details: in acetonitrile, 318.15 K
READOUT_NAME: solubility (mole fraction)

GIVEN_SMILES | READOUT_NAME | RECORDED_MEASUREMENT
COc1ccc(Cl)cc1C(=O)NCCc1ccc(S(=O)(=O)NC(=O)NC2CCCCC2)cc1 | solubility (mole fraction) | 0.00043

----------
Conditions: in methanol, 323.15 K

GIVEN_SMILES | solubility (mole fraction)
COc1ccc(Cl)cc1C(=O)NCCc1ccc(S(=O)(=O)NC(=O)NC2CCCCC2)cc1 | 0.00131

----------
Conditions: in isopropanol, 318.15 K
READOUT_NAME: solubility (mole fraction)

GIVEN_SMILES | RECORDED_MEASUREMENT
COc1ccc(Cl)cc1C(=O)NCCc1ccc(S(=O)(=O)NC(=O)NC2CCCCC2)cc1 | 0.000577

----------
Conditions: in methanol, 308.15 K

GIVEN_SMILES | solubility (mole fraction)
COc1ccc(Cl)cc1C(=O)NCCc1ccc(S(=O)(=O)NC(=O)NC2CCCCC2)cc1 | 0.000451

----------
Details: in water, 298.15 K

GIVEN_SMILES | solubility (mole fraction)
COc1ccc(Cl)cc1C(=O)NCCc1ccc(S(=O)(=O)NC(=O)NC2CCCCC2)cc1 | 1.26e-07

----------
Settings: in water, 293.15 K

GIVEN_SMILES | solubility (mole fraction)
COc1ccc(Cl)cc1C(=O)NCCc1ccc(S(=O)(=O)NC(=O)NC2CCCCC2)cc1 | 1.02e-07

----------
Settings: in acetonitrile, 298.15 K
READOUT_NAME: solubility (mole fraction)

GIVEN_SMILES | RECORDED_MEASUREMENT
COc1ccc(Cl)cc1C(=O)NCCc1ccc(S(=O)(=O)NC(=O)NC2CCCCC2)cc1 | 0.000144

----------
Settings: in isopropanol, 288.15 K

GIVEN_SMILES | solubility (mole fraction)
COc1ccc(Cl)cc1C(=O)NCCc1ccc(S(=O)(=O)NC(=O)NC2CCCCC2)cc1 | 0.000106

----------
Settings: in acetonitrile, 293.15 K
READOUT_NAME: solubility (mole fraction)

GIVEN_SMILES | READOUT_NAME | RECORDED_MEASUREMENT
COc1ccc(Cl)cc1C(=O)NCCc1ccc(S(=O)(=O)NC(=O)NC2CCCCC2)cc1 | solubility (mole fraction) | 0.000106
